# MEASURED ON: Glucose transporter (Leishmania mexicana)
# METHOD NOTES: ST_JUDE_LEISH: Cytotoxicity at 2uM final concentration against transgenic Leishmania Mexicana promastigotes LmGT2 that are glucose transport deficient and complemented with the L. Mexicana glucose transporter 2. Activity is measured by DNA content using SYBR green in vitro
# Assay type: functional
Overview of recorded inhibition for various compounds
RESULT TYPE: inhibition (%)

* CC(C)(C)NCc1cc(Nc2ccnc3cc(Cl)ccc23)ccc1F | 9.71
* COc1ccc(Nc2ncc3c(-c4cccc(NC(=O)c5ccc(N)cc5)c4)c[nH]c3n2)cc1OC | 7.97
* COc1ccccc1C(C)NCC(=O)Nc1cc(C(F)(F)F)ccc1Cl (stereo unspecified) | 0.58
* CCCCCCc1cc(Oc2c(I)cc(C[C@H](N)C(=O)O)cc2I)ccc1O | -0.38
* CC(C)c1ccc(NC(=O)Nc2ccc(CCNCCCc3ccccc3)cc2)cc1 | 0.36
* N=C(N)CCN(Cc1ccccc1)c1ccc(Cl)cc1 | -1.35
* COc1cc(Nc2ccnc3ccc(C(F)(F)F)cc23)cc(OC)c1OC | 12.6
* CCOC(=O)c1[nH]c2cc(Cl)cc(Cl)c2c1/C=C/C(=O)Nc1ccc(-c2cnc(NC(C)=O)[nH]2)cc1 | -1.73
* CCc1ccc(-n2c(NC(=O)c3ccccc3)nc3ccc(S(=O)(=O)NC(C)C(C)C)cc32)cc1 (stereo unspecified) | -1.72
* CCN(CC)S(=O)(=O)c1ccc(Cl)c(C(=O)Nc2ccc3nc(C)sc3c2)c1 | -1.58
* CC1=C(C(=O)OCCOCc2ccccc2)C(c2ccccc2C(F)(F)F)C(C(=O)OCCOCc2ccccc2)=C(C)N1 | -2.95
* CC(=NNC(S)=NCc1ccco1)c1ccccn1 | 1.16
* CC(CN1CCN(C)CC1)C(=O)Nc1cccc(-c2cccc(-c3nc4ccccc4[nH]3)c2)c1 (stereo unspecified) | 2.44
* COc1ccc(-c2nc(NC(=O)COc3ccc(C(C)=O)cc3)sc2C)cc1 | 2.69
* COc1ccc(CN2C(=S)N(Cc3ccccc3)C(=O)C2CC(=O)Nc2ccccc2)cc1OC (stereo unspecified) | -2.09
* CC(O)CNc1nc2ccccc2n1CC(=O)Nc1cccc(C(=O)Nc2cccc(C(F)(F)F)c2)c1 (stereo unspecified) | 4.48
* O=C(Cn1c2ccccc2c(=O)c2ccc(Cl)cc21)Nc1ccc(C(F)(F)F)cc1 | -1.59
* CO/C(=C\C=C\c1cc2cc(Cl)c(Cl)cc2[nH]1)C(=O)NCCCN1CCN(c2cccc(CCO)c2)CC1 | -0.1
* NC1CCN(CCNCc2cccc(-c3ccc(-c4nc5cc(F)ccc5[nH]4)cc3)c2)C1 (stereo unspecified) | 6.13
* COc1ccccc1Cc1nc2ccccc2nc1SCC(=O)Nc1cccc(C(F)(F)F)c1 | 1.7
* CCN(CCCN1CCCCC1)c1cc(C)nc(Nc2ccc(Br)cc2F)n1 | 1.34
* CCOC(=O)c1cc2c(CCN3C(=O)c4ccccc4C3=O)cn(C)c2cc1-c1ccncc1 | 90.9
* Cc1cc(CN2CC[C@H](NC(=O)c3ccc(Cl)c(Cl)c3)C2)ccc1OC1CCN(C)C1 (stereo partly specified) | -0.09
* O=C(C=Cc1ccc(-c2ccccc2)cc1)N1CCC(CCN2CCC(c3c[nH]c4ccccc34)CC2)CC1 | -1.2
* O=C(Nc1ccc(CN2CCN(S(=O)(=O)c3cccc(Cl)c3)CC2)cc1)c1cccs1 | 1.17
* CCOc1cc(-c2nnc3[nH]c(=O)n(C)c(=O)c3n2)ccc1OC(C)C | -1.04
* COc1ccc(CCN(C)CCCOc2ccc(NC(=O)COc3cccc4sc5ccccc5c(=O)c34)cc2)cc1OC | -0.2
* COc1ccc2nccc([C@@H](O)CN3CCC(NCc4nc5c(OCc6ccccc6)cccc5[nH]4)CC3)c2c1 | 4.99
* Cc1ccc(S(=O)(=O)N2CCN(C(=O)c3cc(-c4ccccc4)n[nH]3)CC2)cc1 | 2.37
* O=C(Nc1cccc(Cl)c1Cl)Nc1ccnc2ccccc12 | 5.95
* CCCCCCCN(CCCCCCC)CCNc1cc(C)nc2ccccc12 | 4.49
